# tgt: Dimer of Gag-Pol polyprotein [489-587] (Human immunodeficiency virus 1)
# Construct: 489-587
# assay notes: Protease Inhibition Assay
# applied conditions: pH 5.6; 37 °C
Catalogue of compounds with associated Ki
observation type: Ki

>  <compound>
CC(C)(C)NC(=O)c1ccccc1CC(O)CSc1ccccc1C(=O)NC(C)(C)C (stereo not drawn)

>  <result>
83000 nM

$$$$
>  <compound>
CC(C)(C)NC(=O)c1c(CC[C@H](O)Cc2ccc3ccccc3c2C(=O)NC(C)(C)C)ccc2ccccc12

>  <result>
481 nM

$$$$
>  <compound>
CC(C)(C)NC(=O)c1ccccc1CCC(O)Cc1ccccc1C(=O)NC(C)(C)C (stereo not drawn) [2-Butanol deriv. 8]

>  <result>
24000 nM

$$$$
>  <compound>
CC(C)(C)NC(=O)c1ccccc1CCC(O)Cc1ccc2ccccc2c1C(=O)NC(C)(C)C (stereo not drawn)

>  <result>
2200 nM

$$$$
>  <compound>
CC(C)(c1ccccc1)N(CCO)C(=O)c1ccccc1CCC(O)Cc1ccccc1C(=O)N(CCO)C(C)(C)c1ccccc1 (stereo not drawn)

>  <result>
22 nM

$$$$
>  <compound>
CC(C)(C)NC(=O)c1c(CC[C@@H](O)Cc2ccc3ccccc3c2C(=O)NC(C)(C)C)ccc2ccccc12 [diarylbutanol deriv. 7R]

>  <result>
25000 nM

$$$$
>  <compound>
CCC1(N(CCO)C(=O)c2ccccc2CC[C@H](O)Cc2ccc(C)cc2C(=O)N(CCO)C(C)(C)c2ccccc2)CCCC1

>  <result>
1400 nM

$$$$
>  <compound>
CCC1(N(CCO)C(=O)c2ccccc2CC[C@@H](O)Cc2ccc(C)cc2C(=O)N(CCO)C(C)(C)c2ccccc2)CCCC1

>  <result>
4.8 nM

$$$$

* * *

Catalogue of compounds with associated Ki
# tgt: Dimer of Gag-Pol polyprotein [489-587] (Human immunodeficiency virus 1, UniProt P12497)
# Construct: 489-587
# assay notes: Protease Inhibition Assay
# applied conditions: pH 5.6; 37 °C
observation type: Ki (nM)

>  <compound>
CC(C)(C)NC(=O)c1ccccc1C[C@@H](O)[C@H](Cc1ccccc1)NC(=O)[C@H](CC(N)=O)NC(=O)c1ccc2ccccc2n1

>  <tgt>
Dimer of Gag-Pol polyprotein [489-587] (Human immunodeficiency virus 1, UniProt P12497)

>  <observation type>
Ki

>  <inequality symbol>
=

>  <recorded number>
1.6

$$$$
>  <compound>
CC(C)(C)NC(=O)c1ccccc1SCC(O)Cc1ccccc1C(=O)N(CCO)C(C)(C)C (stereo not given) [Tertiary Amide deriv. 6]

>  <tgt>
Dimer of Gag-Pol polyprotein [489-587] (Human immunodeficiency virus 1, UniProt P12497)

>  <observation type>
Ki

>  <inequality symbol>
=

>  <recorded number>
34000

$$$$
>  <compound>
CC(C)(C)NC(=O)c1ccccc1CC(O)CSc1ccccc1NC(=O)C(C)(C)C (stereo not given)

>  <tgt>
Dimer of Gag-Pol polyprotein [489-587] (Human immunodeficiency virus 1, UniProt P12497)

>  <observation type>
Ki

>  <inequality symbol>
>

>  <recorded number>
100000

$$$$
>  <compound>
CC(C)(C)N(CCO)C(=O)c1ccccc1CCC(O)Cc1ccccc1C(=O)N(CCO)C(C)(C)c1ccccc1 (stereo not given)

>  <tgt>
Dimer of Gag-Pol polyprotein [489-587] (Human immunodeficiency virus 1, UniProt P12497)

>  <observation type>
Ki

>  <inequality symbol>
=

>  <recorded number>
90

$$$$
>  <compound>
CCC1(N(CCO)C(=O)c2ccccc2CCC(O)Cc2ccc(Cl)cc2C(=O)N(CCO)C(C)(C)c2ccccc2)CCCC1 (stereo not given) [Tertiary Amide deriv. 43cb]

>  <tgt>
Dimer of Gag-Pol polyprotein [489-587] (Human immunodeficiency virus 1, UniProt P12497)

>  <observation type>
Ki

>  <inequality symbol>
=

>  <recorded number>
2

$$$$
